tested on: Raji B lymphoblastoid cell; assay: MTT anti-proliferative assay, Raji; assay type: cell-based, human
Marks after values point to notes of the source that are not given here.
READOUT NAME: SI (selectivity index), IC50 (L-02)/IC50 (Raji)

Value (SI (selectivity index), IC50 (L-02)/IC50 (Raji), Raji B lymphoblastoid cell) for record `Cc1ccc(/C=C(\C#N)c2ccccc2OC(F)(F)F)cc1` = > 1.6

Value (SI (selectivity index), IC50 (L-02)/IC50 (Raji), Raji B lymphoblastoid cell) for record `CN(C)c1ccc(/C=C(\C#N)c2ccc(OC(F)(F)F)cc2)cc1` = > 1.4

Value (SI (selectivity index), IC50 (L-02)/IC50 (Raji), Raji B lymphoblastoid cell) for record `N#C/C(=C\c1ccc(N2CCOCC2)cc1)c1cccc(OC(F)(F)F)c1` = > 1.1

Value (SI (selectivity index), IC50 (L-02)/IC50 (Raji), Raji B lymphoblastoid cell) for record COc1ccc(/C=C\c2cc(OC)c(OC)c(OC)c2)cc1O [CA-4, combretastatin A-4, reference compound] = > 5.8^c

Value (SI (selectivity index), IC50 (L-02)/IC50 (Raji), Raji B lymphoblastoid cell) for record `Cc1ccc(/C=C(\C#N)c2cccc(OC(F)(F)F)c2)cc1` = > 1.2

----------
system: HepG2 hepatoma cell; assay: MTT anti-proliferative assay, HepG2; assay type: cell-based, human; details: MTT, 48 h; read-out: IC50 HepG-2
pIC50: −log10 of the molar value.
READOUT NAME: pIC50

The compound listed as `N#C/C(=C\c1ccc(/C=C/C(=O)c2ccc(F)cc2)cc1)c1ccc(OC(F)(F)F)cc1` shows pIC50 equal to < 4.00

The compound listed as `N#C/C(=C\c1ccc(Cl)cc1)c1ccc(OC(F)(F)F)cc1` shows pIC50 equal to 4.68

The compound listed as `COc1ccc(/C=C(\C#N)c2ccc(OC(F)(F)F)cc2)cc1` shows pIC50 equal to 4.14

The compound listed as `N#C/C(=C\c1ccccc1Br)c1ccc(C(F)(F)F)cc1` shows pIC50 equal to < 4.00

The compound listed as `Cc1ccc(/C=C(\C#N)c2cccc(OC(F)(F)F)c2)cc1` shows pIC50 equal to 4.42

The compound listed as `N#C/C(=C\c1ccccn1)c1ccc(C(F)(F)F)cc1` shows pIC50 equal to < 4.00

The compound listed as `CN(C)c1ccc(/C=C(\C#N)c2ccc(OC(F)(F)F)cc2)cc1` shows pIC50 equal to < 4.00

The compound listed as `N#C/C(=C\c1cccc(C(F)(F)F)c1)c1ccc(C(F)(F)F)cc1` shows pIC50 equal to < 4.00

The compound listed as `Cc1cc(C)c(/C=C(\C#N)c2ccc(C(F)(F)F)cc2)c(C)c1` shows pIC50 equal to < 4.00

----------
test system: MGC-803 late stage differentiation gastric cancer cell; experiment: MTT anti-proliferative assay, MGC-803; format: cell-based, human
READOUT NAME: SI (selectivity index), IC50 (L-02)/IC50 (MGC-803)

The molecule listed as CCc1ccc(/C=C(\C#N)c2cccc(OC(F)(F)F)c2)cc1 [Compound 1b2f] shows SI (selectivity index), IC50 (L-02)/IC50 (MGC-803) equal to > 2.0

The molecule listed as CCN(CC)c1ccc(/C=C(\C#N)c2ccc(C)cc2)cc1 [Compound 1d2b] shows SI (selectivity index), IC50 (L-02)/IC50 (MGC-803) equal to > 11.5

The molecule listed as N#C/C(=C\c1cccs1)c1ccc(OC(F)(F)F)cc1 [Compound 1a3b] shows SI (selectivity index), IC50 (L-02)/IC50 (MGC-803) equal to > 1.7

The molecule listed as N#C/C(=C\c1ccc(F)cc1)c1ccc(C(F)(F)F)cc1 [Compound 1f2d] shows SI (selectivity index), IC50 (L-02)/IC50 (MGC-803) equal to > 1.9

The molecule listed as Cc1ccc(/C(C#N)=C/c2ccc(N(C)C)cc2)cc1 [Compound 1d2a] shows SI (selectivity index), IC50 (L-02)/IC50 (MGC-803) equal to > 5.3

The molecule listed as N#C/C(=C\c1ccc(Br)cc1)c1ccccc1OC(F)(F)F [Compound 1c2c] shows SI (selectivity index), IC50 (L-02)/IC50 (MGC-803) equal to > 2.1

The molecule listed as N#C/C(=C\c1ccc(N2CCCC2)cc1)c1ccc(OC(F)(F)F)cc1 [Compound 1a2t] shows SI (selectivity index), IC50 (L-02)/IC50 (MGC-803) equal to > 2.4

The molecule listed as CN(C)c1ccc(/C=C(\C#N)c2ccc(OC(F)(F)F)cc2)cc1 [Compound 1a2h] shows SI (selectivity index), IC50 (L-02)/IC50 (MGC-803) equal to > 5.9

The molecule listed as N#C/C(=C\c1ccc(F)cc1)c1cccc(OC(F)(F)F)c1 [Compound 1b2b] shows SI (selectivity index), IC50 (L-02)/IC50 (MGC-803) equal to > 13.1
